The entries below are paired with their reported MEAN CORPUSCULAR HEMOGLOBIN CONCENTRATION.
# Species: Rattus norvegicus
# measurementProtocol: DrugMatrix - Regimen: Daily Repeat
# Type: toxicity, organism-based, Sprague-Dawley
# Parameters: regimen Daily Repeat, gender Male, age 6-8 weeks
# experimentalSetup: in vivo, po, 0 mg/kg, 120 h, tissue Blood, route oral GAVAGE, dose level Control, time 5 day, […]
Enter your answer as a number in G/DL; do not include the unit.

Data request: Reported MEAN CORPUSCULAR HEMOGLOBIN CONCENTRATION, compound C[C@@H]1CN(c2c(F)c(N)c3c(=O)c(C(=O)O)cn(C4CC4)c3c2F)C[C@H](C)N1 : ____
Data returned: 38.82

---

# Species: Rattus norvegicus
# measurementProtocol: DrugMatrix - Regimen: Daily Repeat
# Assay type: toxicity, organism-based, Sprague-Dawley
# Design: regimen Daily Repeat, gender Male, age 6-8 weeks
# experimentalSetup: in vivo, iv, 0 mg/kg, 120 h, tissue Plasma, dose level Control, time 5 day, vehicle 100 % SALINE
Starred links: 1 amine or outer side, 2 acyl side, 3 side chain; linkers in the order of their positions; H or OH if unused. Positions of bridges follow the written chain, without caps; N, C: chain ends. Non-standard residues stand in square brackets, D forms with d. Residues, ends and D or L forms follow the SMILES beside them. Chains are numbered I, II in the order given. Actinocin(9to1) = Cc1c2oc3c(C)ccc(C(=O)[*:1])c3nc-2c(C(=O)[*:2])c(N)c1=O; NMeV = CN[C@H](C(=O)O)C(C)C; Sar = CNCC(=O)O
property: PHOSPHORUS (mg/dL)
Use mg/dL as the unit, but write only the number.

Take a look at these entries with their results.
Data request: Dear colleague, I am looking for the recorded PHOSPHORUS of the following molecule: CC[C@]1(O)C[C@H]2CN(CCc3c([nH]c4ccccc34)[C@@](C(=O)OC)(c3cc4c(cc3OC)N(C=O)[C@H]3[C@@](O)(C(=O)OC)[C@H](OC(C)=O)[C@]5(CC)C=CCN6CC[C@]43[C@@H]65)C2)C1 [VINCRISTINE]
Data returned: 10.32

Data request: For Cc1c2oc3c(C)ccc(C(=O)N[C@@H]4C(=O)N[C@H](C(C)C)C(=O)N5CCC[C@H]5C(=O)N(C)CC(=O)N(C)[C@@H](C(C)C)C(=O)O[C@@H]4C)c3nc-2c(C(=O)N[C@@H]2C(=O)N[C@H](C(C)C)C(=O)N3CCC[C@H]3C(=O)N(C)CC(=O)N(C)[C@@H](C(C)C)C(=O)O[C@@H]2C)c(N)c1=O [DACTINOMYCIN] (I: T[dV]P[Sar][NMeV] / II: T[dV]P[Sar][NMeV]; ester I:1-I:C, II:1-II:C; linker I:N-II:N via Actinocin(9to1)) , what is its reported PHOSPHORUS?
Data returned: 11.7

Data request: Sample COc1cc2c3cc1Oc1cc(ccc1O)C[C@@H]1c4c(cc(OC)c(O)c4Oc4ccc(cc4)C[C@@H]3N(C)CC2)CC[N+]1(C)C.[Cl-] — what was its PHOSPHORUS?
Data returned: 11.52

Moving on to the next molecule.
Data request: Can you look up the measured PHOSPHORUS of Cc1ccc(N(CC2=NCCN2)c2cccc(O)c2)cc1 [PHENTOLAMINE] for me?
Data returned: 11.75

---

# Species on record: Rattus norvegicus
# measurementProtocol: DrugMatrix - Regimen: Daily Repeat
# Assay type: toxicity, organism-based, Sprague-Dawley
# Parameters: regimen Daily Repeat, gender Male, age 6-8 weeks
# experimentalSetup: in vivo, po, 0 mg/kg, 72 h, tissue Blood, route oral GAVAGE, dose level Control, time 3 day, […]
property: ABSOLUTE EOSINOPHIL

Data request: Give its ABSOLUTE EOSINOPHIL value. Item: C[C@H]1O[C@@H](O[C@H]2[C@@H](O)C[C@H](O[C@H]3[C@@H](O)C[C@H](O[C@H]4CC[C@@]5(C)[C@H](CC[C@@H]6[C@@H]5C[C@@H](O)[C@]5(C)[C@@H](C7=CC(=O)OC7)CC[C@]65O)C4)O[C@@H]3C)O[C@@H]2C)C[C@H](O)[C@@H]1O
Data returned: 0 CELLS/uL

Data request: Please look up its ABSOLUTE EOSINOPHIL: Cc1oncc1C(=O)Nc1ccc(C(F)(F)F)cc1 [LEFLUNOMIDE]
Data returned: 52.33 CELLS/uL

Data request: Request the reported ABSOLUTE EOSINOPHIL associated with OC(Cn1cncn1)(Cn1cncn1)c1ccc(F)cc1F
Data returned: 104.17 CELLS/uL

Data request: Query: ABSOLUTE EOSINOPHIL; subject: C[C@@H]1CN(c2c(F)c(N)c3c(=O)c(C(=O)O)cn(C4CC4)c3c2F)C[C@H](C)N1
Data returned: 70.67 CELLS/uL

Further cases:
Data request: Which ABSOLUTE EOSINOPHIL is reported for this compound? O=NN(CCCl)C(=O)NC1CCCCC1
Data returned: 70.67 CELLS/uL

Data request: Bench note: what ABSOLUTE EOSINOPHIL did CN(C)c1nc(N(C)C)nc(N(C)C)n1 show?
Data returned: 70.67 CELLS/uL

Data request: If you can, please state the reported ABSOLUTE EOSINOPHIL value of Cc1noc(NS(=O)(=O)c2ccc(N)cc2)c1C .
Data returned: 0 CELLS/uL

Data request: Recorded ABSOLUTE EOSINOPHIL for Cc1ccc(-c2cc(C(F)(F)F)nn2-c2ccc(S(N)(=O)=O)cc2)cc1 , please?
Data returned: 104.17 CELLS/uL

Data request: Given CC(C)C(=O)Nc1ccc([N+](=O)[O-])c(C(F)(F)F)c1 [FLUTAMIDE] , state its recorded ABSOLUTE EOSINOPHIL.
Data returned: 13.67 CELLS/uL

Data request: # query: ABSOLUTE EOSINOPHIL of entry O=c1oc2ccccc2c(O)c1Cc1c(O)c2ccccc2oc1=O
Data returned: 0 CELLS/uL

Data request: Which ABSOLUTE EOSINOPHIL is listed for CCC(C)n1ncn(-c2ccc(N3CCN(c4ccc(OCC5COC(Cn6cncn6)(c6ccc(Cl)cc6Cl)O5)cc4)CC3)cc2)c1=O (centres undefined) ?
Data returned: 104.17 CELLS/uL

Data request: Looking for the measured ABSOLUTE EOSINOPHIL of CC(C)(Oc1ccc(Cl)cc1)C(=O)O , can you help?
Data returned: 0 CELLS/uL

Data request: What value of measured ABSOLUTE EOSINOPHIL is listed for CCOC(=O)C1=C(COCCN)NC(C)=C(C(=O)OC)C1c1ccccc1Cl (centres undefined) ?
Data returned: 70.67 CELLS/uL

Data request: Request the reported ABSOLUTE EOSINOPHIL associated with O=C(O)CCCc1ccc(N(CCCl)CCCl)cc1
Data returned: 104.17 CELLS/uL

---

# Species on record: Rattus norvegicus
# measurementProtocol: DrugMatrix - Regimen: Daily Repeat
# Assay type: toxicity, organism-based, Sprague-Dawley
# Parameters: regimen Daily Repeat, gender Male, age 6-8 weeks
# experimentalSetup: in vivo, po, 0 mg/kg, 120 h, tissue Blood, route oral GAVAGE, dose level Control, time 5 day, […]
property: LEUKOCYTE COUNT (x10E3/uL)
# value in x10E3/uL; strip the unit string

Some entries whose results are on file:
Data request: For Cc1noc(NS(=O)(=O)c2ccc(N)cc2)c1C , what is its reported LEUKOCYTE COUNT?
Data returned: 14.02

Data request: Requested field: LEUKOCYTE COUNT. Item: CC(C)C(=O)Nc1ccc([N+](=O)[O-])c(C(F)(F)F)c1 [FLUTAMIDE]
Data returned: 12.2

Others:
Data request: Please report the recorded LEUKOCYTE COUNT for O=NN(CCCl)C(=O)NC1CCCCC1 .
Data returned: 10.58

Data request: Fill blank: measured LEUKOCYTE COUNT of the compound Cc1ccc(-c2cc(C(F)(F)F)nn2-c2ccc(S(N)(=O)=O)cc2)cc1 is ____.
Data returned: 18.8

Data request: What does the record list as LEUKOCYTE COUNT for C[C@H]1O[C@@H](O[C@H]2[C@@H](O)C[C@H](O[C@H]3[C@@H](O)C[C@H](O[C@H]4CC[C@@]5(C)[C@H](CC[C@@H]6[C@@H]5C[C@@H](O)[C@]5(C)[C@@H](C7=CC(=O)OC7)CC[C@]65O)C4)O[C@@H]3C)O[C@@H]2C)C[C@H](O)[C@@H]1O ?
Data returned: 9.15

Data request: Can you share its LEUKOCYTE COUNT? I mean this compound: Cc1oncc1C(=O)Nc1ccc(C(F)(F)F)cc1 [LEFLUNOMIDE]
Data returned: 9.87

Data request: Given CCOC(=O)C1=C(COCCN)NC(C)=C(C(=O)OC)C1c1ccccc1Cl (stereo not drawn) , state its recorded LEUKOCYTE COUNT.
Data returned: 10.58

Data request: Could you share which LEUKOCYTE COUNT value was measured for CC(C)(Oc1ccc(Cl)cc1)C(=O)O ?
Data returned: 18.73

These data points were gathered from ChEMBL document CHEMBL3885881.
